Target: Rabies virus glycoprotein G, ERA strain (attenuated vaccine strain, ATCC VR332) (Rabies virus, ERA strain (genotype 1 lyssavirus)) (UniProt P03524)
Sequence (P03524 20-524 limits assumed): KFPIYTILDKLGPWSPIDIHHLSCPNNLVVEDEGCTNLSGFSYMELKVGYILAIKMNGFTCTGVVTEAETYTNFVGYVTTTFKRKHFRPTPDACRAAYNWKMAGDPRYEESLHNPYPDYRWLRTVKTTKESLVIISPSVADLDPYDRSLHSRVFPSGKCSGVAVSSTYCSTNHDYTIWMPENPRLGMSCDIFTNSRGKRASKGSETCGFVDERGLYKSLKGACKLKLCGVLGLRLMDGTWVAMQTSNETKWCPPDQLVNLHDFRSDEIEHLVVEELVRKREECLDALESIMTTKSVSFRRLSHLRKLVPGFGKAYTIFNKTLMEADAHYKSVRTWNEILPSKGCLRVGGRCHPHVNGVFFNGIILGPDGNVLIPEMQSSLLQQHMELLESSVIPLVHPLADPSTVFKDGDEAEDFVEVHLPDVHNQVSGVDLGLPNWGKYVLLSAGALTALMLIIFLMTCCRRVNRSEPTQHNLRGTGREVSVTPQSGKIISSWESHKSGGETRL
Assay: cell-based or functional assay
Would you mind telling me the reported ERA neutralizing antibody titer (RFFIT): EU/ml of each entry?
Your answer is read as EU/ml, so omit the unit and give the number.

Would you mind telling me what ERA neutralizing antibody titer (RFFIT): EU/ml value was observed for LG214C10 (VHH) VHH: EVQLVESGGGLVQPGGSLRLSCAASGFIFGSYDMSWVRQAPGKGPEWVSGINSGGGSTGYADSVKGRFTISRDNAKNTLYLQMNSLKPEDTAVYYCSTNLYPTTDDVWGQGTQVTVSS ?
14

Bench note: what ERA neutralizing antibody titer (RFFIT): EU/ml did LG212A2 (VHH) VHH: EVQLVESGGGLVQAGGSLRLSCAASGRTFDTYFVGWFRQAPGKERDFVAAISWSGDRTFYADSVKGRFTISRDNAKNTEYLQMNSLKPEDTAVYYCAAREYGRLYSDSEAYDYWGQGTQVTVSS show?
0.52
